# Avg % Insert per record follows
# System: TTR
# assay remarks: TTR editing in HUH7 cells transfected with Spy Cas9 mRNA and dgRNAs (Table 5)
# Format: cell-based, human
# stated conditions: HUH7 cells co-transfected with Spy Cas9 mRNA (SEQ ID NO:2) and dgRNAs
endpoint name: Avg % Insert (%)

residue codes	endpoint name	quantitative result
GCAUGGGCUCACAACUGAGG (tested as dual guide RNA, chemistry not given here) [CR003362]	Avg % Insert	3.43
CUGAGGAGGAAUUUGUAGAA (tested as dual guide RNA, chemistry not given here) [CR003364]	Avg % Insert	24.68
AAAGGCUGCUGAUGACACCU (tested as dual guide RNA, chemistry not given here) [CR003353]	Avg % Insert	7.73
GGCUGUCGUCACCAAUCCCA (tested as dual guide RNA, chemistry not given here) [CR003391]	Avg % Insert	2.10
GCGGCGGGGGCCGGAGUCGU (tested as dual guide RNA, chemistry not given here) [CR003374]	Avg % Insert	0.45
ACUGAGGAGGAAUUUGUAGA (tested as dual guide RNA, chemistry not given here) [CR003363]	Avg % Insert	17.83
AAUAGGAGUAGGGGCUCAGC (tested as dual guide RNA, chemistry not given here) [CR003384]	Avg % Insert	0.84
UGUAGAAGGGAUAUACAAAG (tested as dual guide RNA, chemistry not given here) [CR003365]	Avg % Insert	17.77
AAUGGUGUAGCGGCGGGGGC (tested as dual guide RNA, chemistry not given here) [CR003375]	Avg % Insert	0.26
UCUAGAACUUUGACCAUCAG (tested as dual guide RNA, chemistry not given here) [CR003345]	Avg % Insert	41.33
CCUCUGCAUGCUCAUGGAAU (tested as dual guide RNA, chemistry not given here) [CR003370]	Avg % Insert	4.83
AGGCAGUCCUGCCAUCAAUG (tested as dual guide RNA, chemistry not given here) [CR003348]	Avg % Insert	36.08
GACGACAGCCGUGGUGGAAU (tested as dual guide RNA, chemistry not given here) [CR003388]	Avg % Insert	3.88
GUGAGUCUGGAGAGCUGCAU (tested as dual guide RNA, chemistry not given here) [CR003360]	Avg % Insert	5.01
AUUGGUGACGACAGCCGUGG (tested as dual guide RNA, chemistry not given here) [CR003389]	Avg % Insert	13.19

###

# System: TTR
# assay remarks: TTR editing in primary cyno hepatocytes electroporated with Spy Cas9 protein and dgRNAs (Tables 10, 11)
# Type: cell-based, cynomolgus monkey
# stated conditions: Table 10; primary cyno hepatocytes electroporated with Spy Cas9 protein (RNP) and dgRNAs

residue codes	unit descriptor	Avg % Insert
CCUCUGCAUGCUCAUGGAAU (tested as dual guide RNA, chemistry not given here) [CR003370]	%	2.40
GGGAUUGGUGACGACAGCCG (tested as dual guide RNA, chemistry not given here) [CR003390]	%	16.49
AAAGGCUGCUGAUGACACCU (tested as dual guide RNA, chemistry not given here) [CR003353]	%	4.67
UGUCUGUCUUCUCUCAUAGG (tested as dual guide RNA, chemistry not given here) [CR005307]	%	2.01

###

# Tested on: TTR
# assay remarks: TTR editing in HepG2 cells transfected with Spy Cas9 mRNA and dgRNAs (Table 6)
# Type: cell-based, human
# stated conditions: HepG2 cells co-transfected with Spy Cas9 mRNA (SEQ ID NO:2) and dgRNAs
Returns one of met or not met; met when Avg % Edit is >= 20%.

residue codes	group
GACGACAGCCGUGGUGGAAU (tested as dual guide RNA, chemistry not given here) [CR003388]	not met
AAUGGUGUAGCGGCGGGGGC (tested as dual guide RNA, chemistry not given here) [CR003375]	not met
ACCUGGGAGCCAUUUGCCUC (tested as dual guide RNA, chemistry not given here) [CR003354]	not met
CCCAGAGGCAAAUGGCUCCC (tested as dual guide RNA, chemistry not given here) [CR003355]	not met
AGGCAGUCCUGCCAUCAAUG (tested as dual guide RNA, chemistry not given here) [CR003348]	met
CCCCUACUCCUAUUCCACCA (tested as dual guide RNA, chemistry not given here) [CR003385]	met
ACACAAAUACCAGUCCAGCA (tested as dual guide RNA, chemistry not given here) [CR003339]	met
AUGCAGCUCUCCAGACUCAC (tested as dual guide RNA, chemistry not given here) [CR003358]	met
AGCCGUGGUGGAAUAGGAGU (tested as dual guide RNA, chemistry not given here) [CR005299]	met

###

# Avg % Deletion per record follows
# Test system: TTR
# assay remarks: TTR editing in primary cyno hepatocytes electroporated with Spy Cas9 protein and dgRNAs (Tables 10, 11)
# Assay type: cell-based, cynomolgus monkey
# stated conditions: Table 10; primary cyno hepatocytes electroporated with Spy Cas9 protein (RNP) and dgRNAs
# Method: Primary liver hepatocytes. Primary human liver hepatocytes (PHH) and primary cynomolgus liver hepatocytes (PCH) (Gibco) were cultured per the manufacturer's protocol (Invitrogen, protocol 11.28.2012). […] Cells were counted and plated on Bio-coat collagen I coated 96-well plates (ThermoFisher, Cat. 877272) at a density of 33,000 cells/well for human or 60,000 cells/well for cyno (or 65,000 cells/well when assaying effects on TTR protein, described further below). […]
endpoint name: Avg % Deletion (%)

residue codes	subject of test	quantitative result
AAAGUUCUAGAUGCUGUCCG (tested as dual guide RNA, chemistry not given here) [CR003346]	TTR	0.09
UGAAUCCAAGUGUCCUCUGA (tested as dual guide RNA, chemistry not given here) [CR005303]	TTR	0.56
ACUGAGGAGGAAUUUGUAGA (tested as dual guide RNA, chemistry not given here) [CR003363]	TTR	2.39
AAAUAGACACCAAAUCUUAC (tested as dual guide RNA, chemistry not given here) [CR003366]	TTR	0.90
GCUGCAUGGGCUCACAACUG (tested as dual guide RNA, chemistry not given here) [CR003361]	TTR	0.08
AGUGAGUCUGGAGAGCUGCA (tested as dual guide RNA, chemistry not given here) [CR003359]	TTR	5.51
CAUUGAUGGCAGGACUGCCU (tested as dual guide RNA, chemistry not given here) [CR003347]	TTR	0.25
CCAGUCCAGCAAGGCAGAGG (tested as dual guide RNA, chemistry not given here) [CR003337]	TTR	0.84
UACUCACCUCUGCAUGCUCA (tested as dual guide RNA, chemistry not given here) [CR003372]	TTR	0.32
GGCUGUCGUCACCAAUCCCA (tested as dual guide RNA, chemistry not given here) [CR003391]	TTR	0.71
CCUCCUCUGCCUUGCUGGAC (tested as dual guide RNA, chemistry not given here) [CR003336]	TTR	0.07
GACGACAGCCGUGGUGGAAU (tested as dual guide RNA, chemistry not given here) [CR003388]	TTR	0.22

###

# Tested on: TTR
# assay remarks: TTR editing in HepG2 cells transfected with Spy Cas9 mRNA and dgRNAs (Table 6)
# Format: cell-based, human
# stated conditions: HepG2 cells co-transfected with Spy Cas9 mRNA (SEQ ID NO:2) and dgRNAs

residue codes	Avg % Deletion / %
ACGUGUCUUCUCUACACCCA (tested as dual guide RNA, chemistry not given here) [CR005302]	2.29
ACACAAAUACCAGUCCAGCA (tested as dual guide RNA, chemistry not given here) [CR003339]	55.84
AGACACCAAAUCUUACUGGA (tested as dual guide RNA, chemistry not given here) [CR003367]	21.27
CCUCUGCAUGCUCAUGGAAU (tested as dual guide RNA, chemistry not given here) [CR003370]	3.62

###

# Test system: TTR
# assay remarks: TTR editing in HEK293_Cas9 cells transfected with dgRNAs (Table 4)
# Type: cell-based, human
# stated conditions: HEK293_Cas9 cells (constitutively express Spy Cas9) transfected with dgRNAs
Returns one of true or false; true when Avg % Deletion is >= 20%.

residue codes	subject of test	group
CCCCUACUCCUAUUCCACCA (tested as dual guide RNA, chemistry not given here) [CR003385]	TTR	false
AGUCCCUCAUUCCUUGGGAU (tested as dual guide RNA, chemistry not given here) [CR003392]	TTR	true
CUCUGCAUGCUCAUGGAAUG (tested as dual guide RNA, chemistry not given here) [CR003369]	TTR	true
UGCACGGCCACAUUGAUGGC (tested as dual guide RNA, chemistry not given here) [CR003349]	TTR	false
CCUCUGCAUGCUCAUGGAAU (tested as dual guide RNA, chemistry not given here) [CR003370]	TTR	true
GCAGGGCGGCAAUGGUGUAG (tested as dual guide RNA, chemistry not given here) [CR003380]	TTR	true
ACCUCUGCAUGCUCAUGGAA (tested as dual guide RNA, chemistry not given here) [CR003371]	TTR	true
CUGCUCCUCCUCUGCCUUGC (tested as dual guide RNA, chemistry not given here) [CR003335]	TTR	true
GAAAGGCUGCUGAUGACACC (tested as dual guide RNA, chemistry not given here) [CR003352]	TTR	true
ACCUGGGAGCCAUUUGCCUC (tested as dual guide RNA, chemistry not given here) [CR003354]	TTR	false
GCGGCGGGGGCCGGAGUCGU (tested as dual guide RNA, chemistry not given here) [CR003374]	TTR	false
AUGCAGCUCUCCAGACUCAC (tested as dual guide RNA, chemistry not given here) [CR003358]	TTR	false
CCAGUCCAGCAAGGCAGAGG (tested as dual guide RNA, chemistry not given here) [CR003337]	TTR	true
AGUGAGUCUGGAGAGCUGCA (tested as dual guide RNA, chemistry not given here) [CR003359]	TTR	false
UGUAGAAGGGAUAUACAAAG (tested as dual guide RNA, chemistry not given here) [CR003365]	TTR	true
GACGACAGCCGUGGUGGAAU (tested as dual guide RNA, chemistry not given here) [CR003388]	TTR	false
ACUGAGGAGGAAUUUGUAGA (tested as dual guide RNA, chemistry not given here) [CR003363]	TTR	false
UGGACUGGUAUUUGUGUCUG (tested as dual guide RNA, chemistry not given here) [CR003340]	TTR	false
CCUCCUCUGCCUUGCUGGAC (tested as dual guide RNA, chemistry not given here) [CR003336]	TTR	true
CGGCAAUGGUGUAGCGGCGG (tested as dual guide RNA, chemistry not given here) [CR003376]	TTR	true
GGGCGGCAAUGGUGUAGCGG (tested as dual guide RNA, chemistry not given here) [CR003379]	TTR	true
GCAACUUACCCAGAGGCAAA (tested as dual guide RNA, chemistry not given here) [CR003356]	TTR	true
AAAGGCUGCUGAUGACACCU (tested as dual guide RNA, chemistry not given here) [CR003353]	TTR	true

These measurements were taken from patent US11795460B2.
